Ref: ChEMBL document CHEMBL1147761

Target protein (sequence): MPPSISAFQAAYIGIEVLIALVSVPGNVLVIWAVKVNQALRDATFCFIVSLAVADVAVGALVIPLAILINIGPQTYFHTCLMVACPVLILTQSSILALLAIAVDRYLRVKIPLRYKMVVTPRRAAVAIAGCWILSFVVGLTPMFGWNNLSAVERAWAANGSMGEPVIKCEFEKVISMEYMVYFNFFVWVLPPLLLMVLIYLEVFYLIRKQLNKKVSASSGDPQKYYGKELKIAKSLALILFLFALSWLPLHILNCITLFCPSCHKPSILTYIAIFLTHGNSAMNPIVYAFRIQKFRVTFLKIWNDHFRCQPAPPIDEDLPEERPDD
endpoint.name: Ki (nM)

> print(dat)
                            smiles.notation  endpoint.name  numeric.readout
1  CCCn1c(=O)c2nc(-c3cnn(Cc4nc(-c5ccc(OC)cc5)no4)c3)[nH]c2n(CCC)c1=O             Ki             3000
2  CCCn1c(=O)c2[nH]c(-c3cnn(Cc4nc(-c5ccc(C#N)cc5)no4)c3)nc2n(CCC)c1=O             Ki             1300

(1) CCCn1c(=O)c2[nH]c(-c3cnn(Cc4nc(-c5cccc(OC)c5)no4)c3)nc2n(CCC)c1=O
(2) CCCn1c(=O)c2nc(-c3cnn(Cc4nc(-c5ccccc5)no4)c3)[nH]c2n(CCC)c1=O
(3) CCCn1c(=O)c2[nH]c(-c3cnn(Cc4cc(-c5ccccc5)on4)c3)nc2n(CCC)c1=O
(4) CCCn1c(=O)c2nc(-c3cnn(Cc4cc(-c5cccc(OC)c5)on4)c3)[nH]c2n(CCC)c1=O
Exam item: Hey, quick one: sort these by Ki, largest value first please. Please list each label once, in the requested order.
Marked response: 4, 1, 3, 2
(4: 3500 nM, 1: 2200 nM, 3: 1500 nM, 2: 370 nM)

* * *

- assay.system: Adenosine A2 receptor (Homo sapiens) (UniProt P29275+P29274)
- test.protocol: Selectivity of adenosine A2A receptor over adenosine A2B receptor
- Type: protein assay
endpoint.name: Ratio Ki

> print(dat)
                            smiles.notation  numeric.readout
1  CCCn1c(=O)c2nc(-c3cnn(Cc4noc(-c5ccccc5Cl)n4)c3)[nH]c2n(CCC)c1=O               65

(P) CCCn1c(=O)c2nc(-c3cnn(CC(=O)Nc4ccccc4Cl)c3)[nH]c2n(CCC)c1=O
(Q) CCCn1c(=O)c2[nH]c(-c3cnn(Cc4cc(-c5ccccc5)on4)c3)nc2n(CCC)c1=O
Exam item: Kindly identify the item with the lower Ratio Ki figure among these two: P and Q Let me know the label of the one you choose.
Marked response: Q
(Q: 30, P: 68)

* * *

- assay.system: Adenosine receptor A2a (Homo sapiens)
- Sequence (P29274 whole entry): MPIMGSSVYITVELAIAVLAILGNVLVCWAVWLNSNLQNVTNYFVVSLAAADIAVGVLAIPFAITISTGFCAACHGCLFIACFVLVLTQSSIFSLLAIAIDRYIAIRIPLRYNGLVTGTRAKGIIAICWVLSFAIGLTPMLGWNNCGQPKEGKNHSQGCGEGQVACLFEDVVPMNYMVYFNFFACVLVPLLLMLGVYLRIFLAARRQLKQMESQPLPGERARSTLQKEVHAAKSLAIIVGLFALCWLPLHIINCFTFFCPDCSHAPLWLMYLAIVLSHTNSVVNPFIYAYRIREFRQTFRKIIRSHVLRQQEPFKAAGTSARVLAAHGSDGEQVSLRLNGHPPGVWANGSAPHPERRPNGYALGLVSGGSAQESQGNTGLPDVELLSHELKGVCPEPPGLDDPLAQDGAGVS
The entries below come with measured Ki values attached.

Previously resolved entries follow.
> print(dat)
                            smiles.notation  result
1  CCCn1c(=O)c2[nH]c(-c3cnn(Cc4nc(-c5ccc(C#N)cc5)no4)c3)nc2n(CCC)c1=O  > 5 µM
2  CCCn1c(=O)c2[nH]c(-c3cnn(Cc4nc(-c5cccc(OC)c5)no4)c3)nc2n(CCC)c1=O  > 5 µM
3  CCCn1c(=O)c2nc(-c3cnn(Cc4cc(-c5ccccc5C(F)(F)F)on4)c3)[nH]c2n(CCC)c1=O  > 5 µM
4  CCCn1c(=O)c2nc(-c3cnn(Cc4nc(-c5ccccc5Cl)no4)c3)[nH]c2n(CCC)c1=O  2.5 µM

Turning to the following compound.
Exam item: Can you share its Ki? I mean this compound: CCCn1c(=O)c2nc(-c3cnn(Cc4noc(-c5cccc(Cl)c5)n4)c3)[nH]c2n(CCC)c1=O
Marked response: > 5 µM
